Molecular target: hCA I (Homo sapiens, UniProt P00915)
Construct: gene CA1; recombinant
Sequence (P00915 2-261): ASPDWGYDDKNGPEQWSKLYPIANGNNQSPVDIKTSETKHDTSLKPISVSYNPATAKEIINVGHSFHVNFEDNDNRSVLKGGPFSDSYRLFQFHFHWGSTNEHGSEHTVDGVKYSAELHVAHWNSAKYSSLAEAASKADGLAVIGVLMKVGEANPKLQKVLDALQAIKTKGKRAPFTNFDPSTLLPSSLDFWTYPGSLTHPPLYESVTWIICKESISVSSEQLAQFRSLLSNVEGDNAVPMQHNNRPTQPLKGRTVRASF
Assay: stopped-flow CO2 hydration assay
Assay type: biochemical
assayReadout: Ki

| compoundString | targetSystem | result |
| --- | --- | --- |
| NS(=O)(=O)c1ccc(CNc2nc(NCCCO)nc(Nc3ccc(C(=O)/C=C/c4ccccc4O)cc3)n2)cc1 | hCA I (Homo sapiens, UniProt P00915) | 5400 nM |
| NS(=O)(=O)c1ccc(CCNc2nc(NCCCO)nc(Nc3ccc(/C=C/c4cccc(O)c4)cc3)n2)cc1 | hCA I (Homo sapiens, UniProt P00915) | 675 nM |
| NS(=O)(=O)c1ccc(CCNc2nc(Nc3ccc(O)cc3)nc(Nc3ccc(/C=C/c4ccccc4)cc3)n2)cc1 | hCA I (Homo sapiens, UniProt P00915) | 90.6 nM |
| NS(=O)(=O)c1ccc(CCNc2nc(NCCCO)nc(Nc3ccc(C(=O)/C=C/c4cccc(O)c4)cc3)n2)cc1 | hCA I (Homo sapiens, UniProt P00915) | 7490 nM |
| NS(=O)(=O)c1ccc(CCNc2nc(Nc3ccc(O)cc3)nc(Nc3ccc(C(=O)/C=C/c4ccc(O)cc4)cc3)n2)cc1 | hCA I (Homo sapiens, UniProt P00915) | 5810 nM |
| NS(=O)(=O)c1ccc(CNc2nc(NCCCO)nc(Nc3ccc(/C=C/c4cccc(O)c4)cc3)n2)cc1 | hCA I (Homo sapiens, UniProt P00915) | 358 nM |
| NS(=O)(=O)c1ccc(CCNc2nc(NCCCO)nc(Nc3ccc(C(=O)/C=C/c4ccccc4O)cc3)n2)cc1 | hCA I (Homo sapiens, UniProt P00915) | 7700 nM |

* * *

Target: hCA I (Homo sapiens)
Construct: gene CA1; recombinant
Assay: stopped-flow CO2 hydration assay
Format: biochemical
Ki listing for selected compounds.
assayReadout: Ki (nM)

| compound | resultOperator | recordedNumber |
| --- | --- | --- |
| NS(=O)(=O)c1ccc(CCNc2nc(Nc3ccc(O)cc3)nc(Nc3ccc(/C=C/c4ccccc4O)cc3)n2)cc1 [compound 35, 35] | = | 3940 |
| NS(=O)(=O)c1ccc(CNc2nc(NCCCO)nc(Nc3ccc(C(=O)/C=C/c4cccc(O)c4)cc3)n2)cc1 [compound 15, 15] | > | 10000 |
| NS(=O)(=O)c1ccc(CCNc2nc(Nc3ccc(O)cc3)nc(Nc3ccc(/C=C/c4cccc(O)c4)cc3)n2)cc1 [compound 39, 39] | = | 742 |
| NS(=O)(=O)c1ccc(CCNc2nc(NCC(O)CO)nc(Nc3ccc(/C=C/c4ccc(O)cc4)cc3)n2)cc1 (centres unmarked) [compound 42] | = | 43.5 |
| NS(=O)(=O)c1ccc(CCNc2nc(NCc3ccc(S(N)(=O)=O)cc3)nc(Nc3ccc(/C=C/c4cccc(O)c4)cc3)n2)cc1 [compound 40] | = | 48.8 |
| NS(=O)(=O)c1ccc(CCNc2nc(NCCCO)nc(Nc3ccc(/C=C/c4ccccc4)cc3)n2)cc1 [compound 30] | = | 5700 |
| NS(=O)(=O)c1ccc(CCNc2nc(NCc3ccc(S(N)(=O)=O)cc3)nc(Nc3ccc(/C=C/c4ccccc4O)cc3)n2)cc1 [compound 36] | = | 448 |
| NS(=O)(=O)c1ccc(CCNc2nc(NCCCO)nc(Nc3ccc(C(=O)/C=C/c4ccc(O)cc4)cc3)n2)cc1 [compound 27] | = | 8960 |
| NS(=O)(=O)c1ccc(CCNc2nc(NCC(O)CO)nc(Nc3ccc(/C=C/c4ccccc4O)cc3)n2)cc1 (centres unmarked) [compound 34] | = | 1670 |
| NS(=O)(=O)c1ccc(CCNc2nc(Nc3ccc(O)cc3)nc(Nc3ccc(C(=O)/C=C/c4ccccc4O)cc3)n2)cc1 [compound 24, 24] | = | 5010 |
| NS(=O)(=O)c1ccc(CCNc2nc(NCc3ccc(S(N)(=O)=O)cc3)nc(Nc3ccc(/C=C/c4ccccc4)cc3)n2)cc1 [compound 33] | = | 48 |
| NS(=O)(=O)c1ccc(CNc2nc(NCCCO)nc(Nc3ccc(C(=O)/C=C/c4ccccc4)cc3)n2)cc1 [compound 13, 13] | = | 1960 |
| NS(=O)(=O)c1ccc(CCNc2nc(Nc3ccc(O)cc3)nc(Nc3ccc(C(=O)/C=C/c4ccccc4)cc3)n2)cc1 [compound 21] | > | 10000 |
| NS(=O)(=O)c1ccc(CCNc2nc(NCC(O)CO)nc(Nc3ccc(/C=C/c4ccccc4)cc3)n2)cc1 (centres unmarked) [compound 31] | = | 36.9 |
| NS(=O)(=O)c1ccc(CCNc2nc(Nc3ccc(O)cc3)nc(Nc3ccc(C(=O)/C=C/c4cccc(O)c4)cc3)n2)cc1 [compound 26] | = | 6630 |
| NS(=O)(=O)c1ccc(Nc2nc(NCCCO)nc(Nc3ccc(/C=C/c4cccc(O)c4)cc3)n2)cc1 [compound 4] | = | 7520 |
| NS(=O)(=O)c1ccc(CCNc2nc(NCC(O)CO)nc(Nc3ccc(/C=C/c4cccc(O)c4)cc3)n2)cc1 (centres unmarked) [compound 38] | = | 6730 |
| NS(=O)(=O)c1ccc(Nc2nc(Cl)nc(NCCCO)n2)cc1 [compound 1, 1] | = | 26.8 |
| NS(=O)(=O)c1ccc(CNc2nc(NCCCO)nc(Nc3ccc(C(=O)/C=C/c4ccc(O)cc4)cc3)n2)cc1 [compound 16] | = | 800 |
| NS(=O)(=O)c1ccc(CCNc2nc(NCC(O)CO)nc(Nc3ccc(C(=O)/C=C/c4ccccc4O)cc3)n2)cc1 (centres unmarked) [compound 23, 23] | > | 10000 |

* * *

Target: hCA IX (Homo sapiens, UniProt Q16790)
Construct: gene CA9; recombinant
Experiment: biochemical
Parameters: stopped-flow CO2 hydration assay, phenol red indicator at 557 nm, 15 min preincubation with inhibitor

| compound | Ki |
| --- | --- |
| NS(=O)(=O)c1ccc(CNc2nc(NCC(O)CO)nc(Nc3ccc(C(=O)/C=C/c4ccc(O)cc4)cc3)n2)cc1 (stereo not shown) | 8460 nM |

* * *

Biological target: hCA IX (Homo sapiens)
Construct: gene CA9; recombinant
Assay: stopped-flow CO2 hydration assay
Format: biochemical
From the text: stopped-flow CO2 hydration assay on hCA IX
assayReadout: Ki (nM)

| compoundString | targetSystem | unitInfo | recordedNumber |
| --- | --- | --- | --- |
| NS(=O)(=O)c1ccc(CCNc2nc(NCCCO)nc(Nc3ccc(/C=C/c4cccc(O)c4)cc3)n2)cc1 | hCA IX (Homo sapiens) | nM | 26.4 |
| NS(=O)(=O)c1ccc(CCNc2nc(NCc3ccc(S(N)(=O)=O)cc3)nc(Nc3ccc(/C=C/c4ccccc4)cc3)n2)cc1 | hCA IX (Homo sapiens) | nM | 1970 |
| NS(=O)(=O)c1ccc(CCNc2nc(NCCc3ccc(S(N)(=O)=O)cc3)nc(Nc3ccc(/C=C/c4cccc(O)c4)cc3)n2)cc1 | hCA IX (Homo sapiens) | nM | 31.1 |

* * *

Target: hCA XII (Homo sapiens, UniProt O43570)
Construct: gene CA12; recombinant
Sequence (O43570 25-354): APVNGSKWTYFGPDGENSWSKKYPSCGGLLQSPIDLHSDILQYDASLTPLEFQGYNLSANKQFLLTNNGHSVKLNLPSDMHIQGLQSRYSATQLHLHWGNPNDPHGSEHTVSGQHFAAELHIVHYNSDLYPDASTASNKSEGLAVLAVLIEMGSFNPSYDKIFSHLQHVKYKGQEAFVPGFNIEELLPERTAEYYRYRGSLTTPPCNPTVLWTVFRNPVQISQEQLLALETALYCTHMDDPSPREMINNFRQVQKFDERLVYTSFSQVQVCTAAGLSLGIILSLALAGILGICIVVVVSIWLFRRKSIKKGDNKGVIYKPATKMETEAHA
Test: stopped-flow CO2 hydration assay
Format: biochemical
log10 Ki listing for selected compounds.
assayReadout: log10 Ki (log10 of the value in nM)

| compound | log10 Ki |
| --- | --- |
| NS(=O)(=O)c1ccc(CCNc2nc(NCc3ccc(S(N)(=O)=O)cc3)nc(Nc3ccc(/C=C/c4ccccc4)cc3)n2)cc1 | 0.79 |
| NS(=O)(=O)c1ccc(CCNc2nc(NCC(O)CO)nc(Nc3ccc(/C=C/c4ccccc4)cc3)n2)cc1 (stereo not shown) | 0.64 |
| NS(=O)(=O)c1ccc(CCNc2nc(NCC(O)CO)nc(Nc3ccc(/C=C/c4cccc(O)c4)cc3)n2)cc1 (stereo not shown) | 1.93 |
| NS(=O)(=O)c1ccc(CCNc2nc(NCCc3ccc(S(N)(=O)=O)cc3)nc(Nc3ccc(/C=C/c4cccc(O)c4)cc3)n2)cc1 | 1.79 |
| NS(=O)(=O)c1ccc(CCNc2nc(Nc3ccc(O)cc3)nc(Nc3ccc(/C=C/c4ccccc4)cc3)n2)cc1 | 0.77 |
| NS(=O)(=O)c1ccc(Nc2nc(NCCCO)nc(Nc3ccc(/C=C/c4cccc(O)c4)cc3)n2)cc1 | 1.82 |
| NS(=O)(=O)c1ccc(CCNc2nc(Nc3ccc(O)cc3)nc(Nc3ccc(/C=C/c4cccc(O)c4)cc3)n2)cc1 | 1.84 |

* * *

Molecular target: hCA IX (Homo sapiens)
Construct: gene CA9; recombinant
Assay: stopped-flow CO2 hydration assay
Assay type: biochemical

| compound | Ki |
| --- | --- |
| NS(=O)(=O)c1ccc(CCNc2nc(NCCCO)nc(Nc3ccc(C(=O)/C=C/c4ccc(O)cc4)cc3)n2)cc1 | > 10000 nM |
| NS(=O)(=O)c1ccc(CCNc2nc(NCCCO)nc(Nc3ccc(/C=C/c4ccccc4)cc3)n2)cc1 | 12.1 nM |
| NS(=O)(=O)c1ccc(CNc2nc(NCCCO)nc(Nc3ccc(C(=O)/C=C/c4ccccc4O)cc3)n2)cc1 | 623 nM |
| NS(=O)(=O)c1ccc(CCNc2nc(Nc3ccc(O)cc3)nc(Nc3ccc(C(=O)/C=C/c4ccccc4O)cc3)n2)cc1 | 227 nM |
| NS(=O)(=O)c1ccc(CCNc2nc(Nc3ccc(O)cc3)nc(Nc3ccc(/C=C/c4cccc(O)c4)cc3)n2)cc1 | 876 nM |
| NS(=O)(=O)c1ccc(CCNc2nc(NCC(O)CO)nc(Nc3ccc(/C=C/c4ccc(O)cc4)cc3)n2)cc1 (stereo not shown) | 258 nM |
| NS(=O)(=O)c1ccc(CCNc2nc(NCC(O)CO)nc(Nc3ccc(/C=C/c4ccccc4)cc3)n2)cc1 (stereo not shown) | 248 nM |
